Reported Conditions: colourless aqueous solution
Give fluorescence wavelength maximum for every item shown.
Answers are plain numbers, in nm.

Worked examples follow.
Answer with the recorded fluorescence wavelength maximum for the compound listed here: `O=C([O-])CN(CC(=O)[O-])c1nc(Nc2ccc(S(=O)(=O)[O-])cc2-c2nc3ccccc3s2)nc(N(CC(=O)[O-])CC(=O)[O-])n1.[K+].[K+].[K+].[K+].[K+]`
570

Answer with the recorded fluorescence wavelength maximum for the compound listed here: `O=S(=O)([O-])c1cccc(Nc2nc(Cl)nc(Nc3ccc(S(=O)(=O)[O-])cc3-c3nc4ccccc4s3)n2)c1.[Na+].[Na+]`
550

Next:
Answer with the recorded fluorescence wavelength maximum for the compound listed here: `O=S(=O)([O-])c1ccc(Nc2nc(Nc3ccc(S(=O)(=O)[O-])cc3-c3nc4ccccc4s3)nc(N3CCOCC3)n2)c(-c2nc3ccccc3s2)c1.[Na+].[Na+]`
582

* * *

Reported Conditions: colourless aqueous solution
Observable: fluorescence wavelength maximum (nm)
Numbers only, in nm.

Answer with the recorded fluorescence wavelength maximum for the compound listed here: `O=C([O-])CNc1nc(Cl)nc(Nc2ccc(S(=O)(=O)[O-])cc2-c2nc3ccccc3s2)n1.[Na+].[Na+]`
548

Answer with the recorded fluorescence wavelength maximum for the compound listed here: `O=S(=O)([O-])c1cccc(Nc2nc(Nc3ccc(S(=O)(=O)[O-])cc3-c3nc4ccccc4s3)nc(N3CCOCC3)n2)c1.[Na+].[Na+]`
565

Answer with the recorded fluorescence wavelength maximum for the compound listed here: `O=S(=O)([O-])c1cccc(Nc2nc(Cl)nc(Nc3ccc(S(=O)(=O)[O-])cc3-c3nc4ccccc4o3)n2)c1.[Na+].[Na+]`
517

Answer with the recorded fluorescence wavelength maximum for the compound listed here: `O=C([O-])CNc1nc(NCC(=O)[O-])nc(Nc2ccc(S(=O)(=O)[O-])cc2-c2nc3ccccc3s2)n1.[Na+].[Na+].[Na+]`
565

Now let's try a different one.
Answer with the recorded fluorescence wavelength maximum for the compound listed here: `O=C(Nc1ccc(S(=O)(=O)[O-])cc1-c1nc2ccccc2s1)c1ccccc1S(=O)(=O)[O-].[Na+].[Na+]`
547
